Hey, just so you know, these numbers are from ChEMBL document CHEMBL4385604.

# maps each entry to its CL/F
- measurement-protocol: Plasma clearance in Sprague-Dawley rat at 5 mg/kg, po by LC-MS/MS analysis
- Format: ADME, organism-based
Please give a number only; it is taken to be in mL/min/kg.

| compound-structure-string | measure-name | number |
| --- | --- | --- |
| CC(C)(C)c1cc(NC(=O)Nc2ccc(-c3cn(CCCCO)c4ncnc(N)c34)cc2)no1 | CL/F | 801 |
| CC(C)(C)c1cc(NC(=O)Nc2ccc(-c3cn(CC#N)c4ncnc(N)c34)cc2)no1 | CL/F | 153 |
| CC(C)n1cc(-c2ccc(NC(=O)Nc3cc(C(C)(C)C)on3)cc2)c2c(N)ncnc21 | CL/F | 255 |
| C#CCn1cc(-c2ccc(NC(=O)Nc3cc(C(C)(C)C)on3)cc2)c2c(N)ncnc21 | CL/F | 28.3 |
| CC(C)(C)c1cc(NC(=O)Nc2ccc(-c3c[nH]c4ncnc(N)c34)cc2F)no1 | CL/F | 56.3 |

Req: Quote CL/F reported for CC(C)(C)c1cc(NC(=O)Nc2ccc(-c3c[nH]c4ncnc(N)c34)cc2)no1 please.
Resp: 14.8

Req: Quote CL/F reported for C=CCn1cc(-c2ccc(NC(=O)Nc3cc(C(C)(C)C)on3)cc2)c2c(N)ncnc21 please.
Resp: 20.3

----------
- subject-of-test: Receptor-type tyrosine-protein kinase FLT3 (Homo sapiens, UniProt P36888, D835H)
- measurement-protocol: Binding affinity to human partial length FLT3 D835H mutant (V592 to Y969 residues) expressed in Escherichia coli after 1 hr by qPCR analysis
measure-name: Kd (nM)
Please give a number only; it is taken to be in nM.

Req: Quote Kd reported for C=CCn1cc(-c2ccc(NC(=O)Nc3cc(C(C)(C)C)on3)cc2)c2c(N)ncnc21 please.
Resp: 5.14

----------
- Test system: BaF3
- measurement-protocol: cells
- measurement-context: Mus musculus, BaF3, 72 h
- Description: Antiproliferative activity against mouse BAF3 cells harboring FLT3-ITD-F691L mutant measured after 72 hrs by MTT assay
# maps each entry to its log10 IC50
The common logarithm of IC50 in nM is what is listed.

Known log10 IC50 results, listed for orientation:
| compound-structure-string | log10 IC50 |
| --- | --- |
| C=CCn1cc(-c2ccc(NC(=O)Nc3cc(C(C)(C)C)on3)c(F)c2)c2c(N)ncnc21 | 1.92 |
| CC(C)(C)c1cc(NC(=O)Nc2ccc(-c3c[nH]c4ncnc(N)c34)cc2)no1 | 0.37 |
| CC(C)=CCn1cc(-c2ccc(NC(=O)Nc3cc(C(C)(C)C)on3)cc2)c2c(N)ncnc21 | 2.33 |
| CC(C)(C)c1cc(NC(=O)Nc2ccc(-c3cn(Cc4ccccc4)c4ncnc(N)c34)cc2)no1 | 2.13 |
| CC(C)(C)c1cc(NC(=O)Nc2ccc(-c3cn(C4CCCC4)c4ncnc(N)c34)cc2)no1 | 1.96 |
| CC(C)n1cc(-c2ccc(NC(=O)Nc3cc(C(C)(C)C)on3)cc2)c2c(N)ncnc21 | 1.10 |
| C=CCn1cc(-c2ccc(NC(=O)Nc3cc(C(C)(C)C)on3)cc2)c2c(N)ncnc21 | 1.11 |
| CC(C)(C)c1cc(NC(=O)Nc2ccc(-c3cn(CCN4CCOCC4)c4ncnc(N)c34)cc2)no1 | 1.54 |
| CCCCCCn1cc(-c2ccc(NC(=O)Nc3cc(C(C)(C)C)on3)cc2)c2c(N)ncnc21 | 2.40 |
| Cn1cc(-c2ccc(NC(=O)Nc3cc(C(C)(C)C)on3)cc2)c2c(N)ncnc21 | 1.45 |

Req: Quote log10 IC50 reported for CC(C)(C)c1cc(NC(=O)Nc2ccc(-c3cn(CCC#N)c4ncnc(N)c34)cc2F)no1 please.
Resp: 1.50

Req: Quote log10 IC50 reported for COCCn1cc(-c2ccc(NC(=O)Nc3cc(C(C)(C)C)on3)cc2)c2c(N)ncnc21 please.
Resp: 1.46

----------
- measurement-protocol: Elimination half-life in Sprague-Dawley rat at 5 mg/kg, po by LC-MS/MS analysis
- Type: ADME, organism-based
- measurement-context: in vivo, read-out: beta t1/2 (converted)
measure-name: half-life (h)
Please give a number only; it is taken to be in h.

Known half-life results, listed for orientation:
| compound-structure-string | number |
| --- | --- |
| CC(C)(C)c1cc(NC(=O)Nc2ccc(-c3c[nH]c4ncnc(N)c34)cc2F)no1 | 2.54 |
| CC(C)n1cc(-c2ccc(NC(=O)Nc3cc(C(C)(C)C)on3)cc2)c2c(N)ncnc21 | 4.22 |
| CC(C)(C)c1cc(NC(=O)Nc2ccc(-c3cn(CCCCO)c4ncnc(N)c34)cc2)no1 | 2.77 |
| CC(C)(C)c1cc(NC(=O)Nc2ccc(-c3c[nH]c4ncnc(N)c34)cc2)no1 | 6.22 |
| C#CCn1cc(-c2ccc(NC(=O)Nc3cc(C(C)(C)C)on3)cc2)c2c(N)ncnc21 | 2.78 |

Req: Quote half-life reported for C=CCn1cc(-c2ccc(NC(=O)Nc3cc(C(C)(C)C)on3)cc2)c2c(N)ncnc21 please.
Resp: 2.06

Req: Quote half-life reported for CC(C)(C)c1cc(NC(=O)Nc2ccc(-c3cn(CC#N)c4ncnc(N)c34)cc2)no1 please.
Resp: 3.7

----------
- subject-of-test: Receptor-type tyrosine-protein kinase FLT3 (Homo sapiens, UniProt P36888, N841I)
- measurement-protocol: Binding affinity to human partial length FLT3 N841I mutant (V592 to Y969 residues) expressed in Escherichia coli after 1 hr by qPCR analysis
measure-name: pKd
Lab note: report pKd as minus log10 of the concentration in molar units, number only.

Req: Quote pKd reported for C=CCn1cc(-c2ccc(NC(=O)Nc3cc(C(C)(C)C)on3)cc2)c2c(N)ncnc21 please.
Resp: 8.63

----------
- measurement-protocol: Oral bioavailability in Sprague-Dawley rat at 5 mg/kg by LC-MS/MS analysis
- Format: ADME, organism-based
- measurement-context: in vivo
measure-name: bioavailability (%)
Please give a number only; it is taken to be in %.

Known bioavailability results, listed for orientation:
| compound-structure-string | number |
| --- | --- |
| CC(C)(C)c1cc(NC(=O)Nc2ccc(-c3cn(CCCCO)c4ncnc(N)c34)cc2)no1 | 9.8 |
| CC(C)(C)c1cc(NC(=O)Nc2ccc(-c3cn(CC#N)c4ncnc(N)c34)cc2)no1 | 11.2 |
| C=CCn1cc(-c2ccc(NC(=O)Nc3cc(C(C)(C)C)on3)cc2)c2c(N)ncnc21 | 59.5 |
| CC(C)n1cc(-c2ccc(NC(=O)Nc3cc(C(C)(C)C)on3)cc2)c2c(N)ncnc21 | 12.1 |
| CC(C)(C)c1cc(NC(=O)Nc2ccc(-c3c[nH]c4ncnc(N)c34)cc2)no1 | 22.5 |
| C#CCn1cc(-c2ccc(NC(=O)Nc3cc(C(C)(C)C)on3)cc2)c2c(N)ncnc21 | 40 |

Note: attention shifts to another entry.
Req: Quote bioavailability reported for CC(C)(C)c1cc(NC(=O)Nc2ccc(-c3c[nH]c4ncnc(N)c34)cc2F)no1 please.
Resp: 25.6

----------
- subject-of-test: Receptor-type tyrosine-protein kinase FLT3 (Homo sapiens, UniProt P36888, K663Q)
- measurement-protocol: Binding affinity to human partial length FLT3 K663Q mutant (V592 to Y969 residues) expressed in Escherichia coli after 1 hr by qPCR analysis
measure-name: Kd (nM)
Please give a number only; it is taken to be in nM.

Req: Quote Kd reported for C=CCn1cc(-c2ccc(NC(=O)Nc3cc(C(C)(C)C)on3)cc2)c2c(N)ncnc21 please.
Resp: 2.48

----------
# maps each entry to its pIC50
- subject-of-test: Receptor-type tyrosine-protein kinase FLT3 (Homo sapiens)
Lab note: report pIC50 as minus log10 of the concentration in molar units, number only.

Known pIC50 results, listed for orientation:
| compound-structure-string | pIC50 |
| --- | --- |
| CC(C)(C)OC(=O)n1cc(-c2ccc(NC(=O)Nc3cc(C(C)(C)C)on3)cc2)c2c(N)ncnc21 | 7.60 |
| CC(C)(C)c1cc(NC(=O)Nc2ccc(-c3c[nH]c4ncnc(N)c34)cc2)no1 | 8.22 |
| C=CCn1cc(-c2ccc(NC(=O)Nc3cc(C(C)(C)C)on3)cc2)c2c(N)ncnc21 | 8.15 |
| Cn1cc(-c2ccc(NC(=O)Nc3cc(C(C)(C)C)on3)cc2)c2c(N)ncnc21 | 8.15 |
| CC(C)(C)c1cc(NC(=O)Nc2ccc(-c3cn(CC#N)c4ncnc(N)c34)cc2F)no1 | 7.72 |

Req: GET pIC50 where system = Receptor-type tyrosine-protein kinase FLT3 (Homo sapiens) and item = CC(C)(C)c1cc(NC(=O)Nc2ccc(-c3cn(CCN4CCN(S(C)(=O)=O)CC4)c4ncnc(N)c34)cc2)no1
Resp: 7.59

Req: GET pIC50 where system = Receptor-type tyrosine-protein kinase FLT3 (Homo sapiens) and item = COCCn1cc(-c2ccc(NC(=O)Nc3cc(C(C)(C)C)on3)c(F)c2)c2c(N)ncnc21
Resp: 7.49

Req: GET pIC50 where system = Receptor-type tyrosine-protein kinase FLT3 (Homo sapiens) and item = CC(C)(C)c1cc(NC(=O)Nc2ccc(-c3cn(CCCN4CCOCC4)c4ncnc(N)c34)cc2)no1
Resp: 8.05

Req: GET pIC50 where system = Receptor-type tyrosine-protein kinase FLT3 (Homo sapiens) and item = CC(C)(C)c1cc(NC(=O)Nc2ccc(-c3cn(C4CCCC4)c4ncnc(N)c34)cc2)no1
Resp: 7.49

Req: GET pIC50 where system = Receptor-type tyrosine-protein kinase FLT3 (Homo sapiens) and item = C=C(C)Cn1cc(-c2ccc(NC(=O)Nc3cc(C(C)(C)C)on3)cc2)c2c(N)ncnc21
Resp: 7.52

Req: GET pIC50 where system = Receptor-type tyrosine-protein kinase FLT3 (Homo sapiens) and item = CC(C)=CCn1cc(-c2ccc(NC(=O)Nc3cc(C(C)(C)C)on3)cc2)c2c(N)ncnc21
Resp: 6.95

Req: GET pIC50 where system = Receptor-type tyrosine-protein kinase FLT3 (Homo sapiens) and item = CC(C)(C)c1cc(NC(=O)Nc2ccc(-c3cn(CC#N)c4ncnc(N)c34)cc2)no1
Resp: 8.05

Req: GET pIC50 where system = Receptor-type tyrosine-protein kinase FLT3 (Homo sapiens) and item = CCC#CCn1cc(-c2ccc(NC(=O)Nc3cc(C(C)(C)C)on3)cc2)c2c(N)ncnc21
Resp: 7.19
